system: IGROV1 ovarian; test: NCI-60 one-dose screen, 48 h (100 = growth as untreated, 0 = no growth, -100 = all killed); details: 10 µM unless noted
Compounds without any hit were thinned out: in the full panel of roughly 83,000, 20% have a hit. The source made the active and inactive calls. The calls were made as follows: active = growth percent below 10; inactive = the rest.
measured_endpoint: growth

- COC(=O)/C=C/c1c(C2(C)NC(=O)c3ccccc3N2)c(=O)oc2ccc(Cl)cc12 (centres undefined): 68.1% (inactive)
- Cc1nn(-c2ccccc2)c2ncnc(N/N=C/c3ccccc3O)c12: 3.8% (active)
- O=C(NCCN1CCCC1)c1ccc(-c2nc3ccc4[nH]ncc4c3c3c2CCCC3)cc1: 1.22% (active)

Fill in the blank: the reported growth of CNC(=O)c1cc(-c2ccc(NC(=S)Nc3cc(C(F)(F)F)cc(C(F)(F)F)c3)cc2)nc2cccnc12 is ____.
75.9% (inactive)

Item: CCc1cccc2c3c(sc12)C(c1ccc(OC)cc1)C(C#N)=C(/N=C/c1ccc(Cl)cc1)O3 (centres undefined)
42.6% (inactive)

====

test system: HS 578T breast; assay: NCI-60 one-dose screen, 48 h (100 = growth as untreated, 0 = no growth, -100 = all killed); conditions: 10 µM unless noted
Compounds without any hit were thinned out: in the full panel of roughly 83,000, 20% have a hit.
Reported growth values for the following molecules.
The answer is to be given in %; state only the numeric part.

The following molecules have reported results that may help.
- CC(=O)N(C)C1CCc2c(sc(NC(=O)c3ccc(C(C)(C)C)cc3)c2C(N)=O)C1 (centres undefined): 38.9
- O=C(Nc1ccc2c(ccn2Cc2ccccn2)c1)c1ccnnc1: 102

Which growth reading was recorded for the molecule COc1ccc([C@H]2c3[nH]c4ccccc4c3C[C@H]3C(=O)N(C4CCN(Cc5c(Cl)cccc5Cl)CC4)CC(=O)N23)c(OC)c1 ?
88.4

And what about the molecule COc1ccc(CCOc2cc3c(cc2OC)CCN(C(=O)NCc2cocn2)C3c2ccc(C)cc2C)cc1 (centres undefined) ?
-4.03

Check CN(C)CCNC(=O)c1ccc(-c2nc3ccc4[nH]ncc4c3c3c2CCC3)cc1 too.
-25

Further, for Fc1ccc(-c2cc3nc(C(Cl)Cl)nc(-c4ccc(F)cc4)n3n2)cc1 ?
-1.86

Moving on to the next molecule: O=C(Nc1ccc2c(ccn2Cc2ccccn2)c1)c1cnccn1
104

====

In this section, each of the compounds is paired with its reported growth.
tested on: SR leukemia; assay: NCI-60 one-dose screen, 48 h (100 = growth as untreated, 0 = no growth, -100 = all killed); settings: 10 µM unless noted
This is part of a sample that, as a whole, favours compounds with a hit. Of some 83,000 tested, about 20% had one in any assay.
Number in %, nothing else.

* Nc1nc(N)c2c(n1)NC(c1ccc(Cl)cc1)CC(c1ccc(Nc3nc(NCCO)nc(N4CCOCC4)n3)cc1)=N2 (centres undefined) | 8.95
* CCCn1cnc2c(c1=N)C(c1ccc(Cl)cc1)c1sc3c(CC)cccc3c1O2 (centres undefined) | 24.2
* O=c1[nH]c2ccccc2cc1CSc1ccccc1Nc1nccc(-c2ccc(Cl)cc2)n1 | 99.2

Look at this compound and give its reported growth. O=C1CCCC2=C1C(c1c[nH]c3ccc(Br)cc13)Cc1cc(Br)ccc1N2 (centres undefined)
33.3

Please answer likewise for C#Cc1nc(C(C)=O)cs1
99.6

Next compound: CCOc1ccc(C(=O)Nc2ncc(Cc3ccc(F)cc3)s2)cc1
19.6

Quick one: CCO/C=N/C1=C(C#N)C(c2ccc(Cl)cc2)c2sc3c(CC)cccc3c2O1 (centres undefined)
18

For FC(F)(F)c1cc(Nc2cccc(Oc3ccc(NC4=NCCN4)nc3)c2)ccc1Cl then?
-28.1

Record: COC(=O)C1(C)CCC[C@]2(C)[C@H]3C[C@H]4C(C(C)C)=C[C@]3(CC[C@@H]12)[C@H]1[C@@H]4[C@@H](OC(=O)c2ccco2)CC[C@@H]1OC(=O)c1ccco1 (some centres undefined)
93.4

What about this compound? CN1CCN(c2nc(-c3csc(-c4ccccc4)n3)cc3ccccc23)CC1
-20.7

One more compound: NC(N)=Nc1ccc(Oc2cccc(NC(N)=Nc3ccc(Br)cc3)c2)cn1
34.5

Try N/C(=N\C(N)=N\c1nc2ccccc2s1)c1ccc2ccccc2c1 next.
-17.6

Next compound up: NS(=O)(=O)c1ccc(Nc2nc(SCc3ccccc3)nc3ccccc23)cc1
33.6

Next entry: CC1(C)NCCC[C@]2(C)[C@H]3C/C(=N\O)C4[C@@H]5C[C@@](C)(CO)CC[C@]5(C)CC[C@@]4(C)[C@]3(C)CC[C@@H]12 (some centres undefined)
81.2

Now consider COc1ccc(-c2nc3ccc(-c4nnc(SCC(=O)Nc5ccc(C(=O)/C=C/c6ccc(Cl)cc6)cc5)o4)cc3[nH]2)cc1 .
68.2

====

tested on: T-47D breast; assay: NCI-60 one-dose screen, 48 h (100 = growth as untreated, 0 = no growth, -100 = all killed); conditions: 10 µM unless noted
About 83,000 compounds went through this panel and 20% of them were active in at least one assay; those are over-represented in the sample as a whole.
measured_endpoint: growth (%)
Quick note: give the figure in %, leave out the unit.

Here are 3 compounds together with their reported answers.
• C#Cc1nc(C(=O)NCCC(=O)Nc2ccc(NC(=O)c3ccc(/C=C/C(=O)c4nccn4C)cc3)cc2)cs1 = 49.3
• Cc1occc1-c1nc2s/c(=C/c3ccc(-c4cc(C(F)(F)F)ccc4Cl)o3)c(=O)n2n1 = 92.7
• Cc1ccc(C2=NN(C)C(=O)C3(CCCC3)C2)cc1 = 102

Return reported growth; argument: O=C(Nc1ccc(Br)cc1)Nc1nc2ccc([N+](=O)[O-])cc2s1
-19

Next up: CCNC(=O)N1CCc2cc(OC)c(OCCc3ccc(OC)nc3)cc2C1c1ccc(C)cc1C (stereo unspecified)
61

# repeat for O=C(CN1CCN(c2cc(=O)n(-c3ccccc3)c3ccccc23)CC1)Nc1cccc(C(F)(F)F)c1
19.7

Moving on to the next compound: NC(=O)c1c(NC(=O)c2ccc(F)cc2F)sc2c1CCC(=O)C2
32.9

Quick one: COc1ccc(COc2ccc(/C=C3\C(=O)Nc4ccccc43)cc2OC)cc1
113

====

system: BT-549 breast; test: NCI-60 one-dose screen, 48 h (100 = growth as untreated, 0 = no growth, -100 = all killed); conditions: 10 µM unless noted
This is part of a sample that, as a whole, favours compounds with a hit. Of some 83,000 tested, about 20% had one in any assay.
measured_endpoint: growth (%)
Report only the number, with the unit % understood.

Worked cases, growth given:
• Cn1cc(-c2nc(N)nnc2-c2c[nH]c3ccc(Br)cc23)c2cc(Br)ccc21 = 48.8
• COc1ccc(C2CC(c3ccc(Nc4nc(NCCO)nc(N5CCOCC5)n4)cc3)=Nc3c(N)nc(N)nc3N2)cc1 (stereo not given) = 99.2
• CC1(C)[C@@H](O)CC[C@]2(C)[C@H]3CC[C@@H]4[C@H]5[C@H](C(=O)/C=C\c6ccncc6)CC[C@]5(O)CC[C@@]4(C)[C@]3(C)CC[C@@H]12 = 68.2
• O=C(Nc1cccc(Cl)c1)Nc1nc2ccc([N+](=O)[O-])cc2o1 = 24

Given Oc1ccc(CSc2nnc(-c3ccc(Cl)cc3)n2-c2ccccc2)c2cccnc12 , state its recorded growth.
35.7

====

system: NCI-H522 lung; test: NCI-60 one-dose screen, 48 h (100 = growth as untreated, 0 = no growth, -100 = all killed); conditions: 10 µM unless noted
This is part of a sample that, as a whole, favours compounds with a hit. Of some 83,000 tested, about 20% had one in any assay.
We'd kindly ask you to apply these growth classes: low band (below -40%), middle band (-40% to below 60%), high band (60% or more)

Example results:
• COc1ccc(N2C(=O)c3cc(Cl)ccc3NC2SCc2ccccc2)cc1 (stereo unspecified) = high band
• COc1ccc([C@@H]2[C@@H](O)C(=O)N2c2cc(OC)c(OC)c(OC)c2)cc1F = low band
• O=C(CCn1c[n+](CC(=O)c2ccc(-c3ccccc3)cc2)c2ccccc21)Nc1cccc2cccnc12 = middle band
• COC(=O)c1[nH]nc2c1C1(C(=O)N(C)c3ccccc31)C(C#N)=C(N)O2 (stereo unspecified) = high band

Determine which band this compound sits in: Cc1ccc(N2C(=O)/C(=C/C=C/c3ccco3)SC2=S)cc1
high band

What would you report for COc1cc2c(cc1OC)C(Sc1ccc(F)cc1)c1c(nc(N)c(C#N)c1N)O2 (stereo unspecified) ?
middle band

Next: CCO/C=N/C1=C(C#N)C(c2ccc(F)cc2)c2sc3c(CC)cccc3c2O1 (stereo unspecified)
middle band

What do we get for CCN(CC)c1ccc2c(c1)Oc1nc(N)c(C#N)c(N)c1C2Sc1ccc(C)cc1 (stereo unspecified) ?
low band

Another: Cn1ccnc1C(=O)/C=C/c1ccc(NC(=O)c2ccc(F)cc2)cc1
middle band

Now consider CC[C@H](CO)Nc1ccc2ncc(C#Cc3cncc(C(=O)Nc4ccc(CN5CCN(C)CC5)c(C(F)(F)F)c4)c3)n2n1 and answer again.
low band
